- System: SNB-75
- runDescription: NCI tumour cell line growth inhibition, 48 h
The source made the active and inactive calls. Rule as the data show it: active = GI50 up to about 1.1 µM and inactive = higher.
The entries below are paired with their reported GI50.

Known GI50 results, listed for orientation:
CCOC(=O)c1nnsc1NC(=O)NCCCCCCn1c(=O)n(CCCCCCNC(=O)Nc2snnc2C(=O)OCC)c(=O)n(CCCCCCNC(=O)Nc2snnc2C(=O)OCC)c1=O; 29.1 µM (inactive)
Cc1csc2nc3[nH]ncc3c(=O)n12; 61 µM (inactive)

In the following, a different molecule is considered.
The molecule identified as "C/C(=N\Nc1nc2ccccc2[nH]1)c1cnccn1" registered its GI50 at 3.61 µM (inactive)

---

- Tested on: SNB-78
- runDescription: NCI tumour cell line growth inhibition, 48 h
Active and inactive are the calls of the source. Rule as the data show it: active = GI50 up to about 1.1 µM and inactive = higher.
Below, each entry is listed alongside its reported GI50.

Example cases with answers are listed next.
CCOC(=O)N1C/C(=C\c2ccccc2)C(=O)/C(=C/c2ccccc2)C1; 19.8 µM (inactive)
COc1ccc(NC(=O)CSc2nnc(-c3ccc(/N=C\c4ccc(Cl)cc4)cc3)o2)cc1; 24.9 µM (inactive)
N#CC1=C(O)NC(O)=C(C#N)C1c1ccc(C2C(C#N)=C(O)NC(O)=C2C#N)cc1; > 100 µM (inactive)
O=C(OCN1C(=O)C2C3C=CC(C2C1=O)C1C2C(=O)N(COC(=O)C4CCCN4)C(=O)C2C31)C1CCCN1 (stereo not given); > 100 µM (inactive)
CC1(C)OC2CC(=O)OCC23C1CC(=O)C1(C)C3CCC2(C)C(c3ccoc3)OC(=O)C3OC321 (stereo not given); > 125 µM (inactive)
COC(=O)/C(=N\NC(=O)C[N+](C)(C)C)C(C(=O)OC)C(=O)C(=O)Nc1ccccc1C(N)=O (stereo not given); > 100 µM (inactive)
COC(=O)C1C2CC3C(OC(=O)C31)C2I (stereo not given); > 100 µM (inactive)
CN[C@@H](C)[C@H](NC)c1ccccc1; > 100 µM (inactive)

In plain terms, "O=C(O)c1ccccc1NC(=O)C1CCCCC1" has a documented GI50 of > 100 µM (inactive)

Please fill in: GI50 reported for CCC1(N=[N+]=[N-])C(=O)c2ccccc2N(C)C1=O (stereo not given) = > 100 µM (inactive)

---

- System: HCC 2998
- runDescription: NCI tumour cell line growth inhibition, 48 h
The source made the active and inactive calls. Cut-off read from the data, not from the text of the source: active = GI50 up to about 1.1 µM and inactive = higher.
Entries and their GI50

Take a look at these entries with their results.
O=C(O)c1nc2ccccc2nc1NCc1ccc(F)cc1; 99.1 µM (inactive)
C=C1N(C=O)C(C)(C)N(O)C1(C)C; > 100 µM (inactive)
COc1cc(C2c3cc4c(cc3OC(NN)C2C)OCO4)cc(OC)c1O (stereo not given); 12.4 µM (inactive)
CC1=CC(=O)/C(=C(/C)NCCN(CCN/C(C)=C2\C(=O)C=C(C)OC2=O)CCN/C(C)=C2\C(=O)C=C(C)OC2=O)C(=O)O1; > 100 µM (inactive)

Attention now turns to another entry.
Hey, HCC 2998 data for CC1(c2ccccc2Cl)C(C#N)C(=O)NC(=O)C1C#N (stereo not given) : GI50 came out at 41.3 µM (inactive)

---

- Test system: ACHN
- runDescription: NCI tumour cell line growth inhibition, 48 h
Calls of active or inactive are those of the source. Rule as the data show it: active = GI50 up to about 1.1 µM and inactive = higher.
Choose the fitting class; nothing outside active, inactive is accepted.

Some solved entries appear below for comparison.
O=C(CC(C(=O)c1cccs1)c1ccsc1)c1ccc(Cl)cc1 (stereo not given); inactive
Fc1cc(C2=C[C@H](c3ccc4c(c3)OCO4)NC(=S)N2)c(Cl)cc1Cl; inactive
Cc1nc2ccc(NC(=S)Nc3ccccc3)cc2c(=O)n1-c1ccccc1; inactive

What was the test verdict on "O=C(c1ccccc1)n1c2ccc(Br)cc2c2nc3ccccc3nc21" ? inactive

What was the test verdict on "Cc1cc(C)nc(NS(=O)(=O)c2ccc(Nc3c4ccccc4nc4ccc(C(=O)Nc5ccc(S(N)(=O)=O)cc5)cc34)cc2)n1" ? inactive

State the result this test recorded for "O=C(/C=C(\N=P(c1ccccc1)(c1ccccc1)c1ccccc1)C(F)(F)C(F)(F)C(F)(F)C(F)(F)C(F)(F)C(F)(F)C(F)(F)F)c1ccccc1" . inactive

Hi team, can someone confirm the assay call for "Nc1ccn([C@H]2CO[C@@H](CO)[C@@H]2O)c(=O)n1" ? inactive

I'd appreciate the recorded outcome for CC/C=N\N1C(N)=C(C#N)C(C#N)(C#N)C1CC (stereo not given) from this test. inactive

---

- System: MDA-MB-435
- runDescription: NCI tumour cell line growth inhibition, 48 h
Active and inactive are the calls of the source. No stated cut-off is given here; in the data, active = GI50 up to about 1.1 µM and inactive = higher.
measurementKind: GI50

Recorded GI50 (compound "NNC(=O)c1cc(Cl)ccc1NC(=O)C12CC3CC(CC(C3)C1)C2" ): 29.3 µM (inactive)

Lab book: GI50 of CC1C(C#N)(C#N)C(C#N)=C(N)C1(C)[N+](=O)[O-] (stereo not given) noted as 45.7 µM (inactive)

The recorded GI50 for CC(C)(C)CN1[C@@H]2CCCC[C@H]2N(CC(C)(C)C)P1(=O)C(O)/C=C/c1ccccc1 (stereo not given in full) is 42.1 µM (inactive)

Quick note, GI50 for "CN(C)CCCNc1cc(O)c2c(c1O)C(=O)c1ccccc1C2=O" landed at 15.5 µM (inactive)

Value of GI50 reported for the compound "C=CC[C@H]1[C@H](O[Si](C)(C)C(C)(C)C)C=CC(=O)[C@@H]1CC(=O)OCC" is 13.4 µM (inactive)

---

- Tested on: SF-268
- runDescription: NCI tumour cell line growth inhibition, 48 h
Activity calls are given as the source filed them. Cut-off read from the data, not from the text of the source: active = GI50 up to about 1.1 µM and inactive = higher.
Measured GI50, listed per entry.

CC(O[Si](c1ccccc1)(c1ccccc1)C(C)(C)C)[C@H](NC(=O)OC(C)(C)C)C(=O)O[Si](c1ccccc1)(c1ccccc1)C(C)(C)C (some centres undefined); 14.3 µM (inactive)
C=CC(C)CCC(C/C=C(\C)CCC=C(C)C)C(=C)CCCC(C)C (centres undefined); > 100 µM (inactive)
Cc1cccc(C(C)(C)C)c1NC(=O)C(=O)C(C(=O)/C=C\c1ccccc1)C1OC(=O)c2ccccc21 (centres undefined); > 100 µM (inactive)

// GI50 lookup, compound = CCCCCCCCCCCCCCCCOCC(COP(=O)([O-])OCC[n+]1ccc(N(C)C)cc1)OCC (centres undefined) , result: 10.8 µM (inactive)

---

We begin with a simple list: items and their reported GI50.
- System: NCI/ADR-RES
- runDescription: NCI tumour cell line growth inhibition, 48 h
The source made the active and inactive calls. No stated cut-off is given here; in the data, active = GI50 up to about 1.1 µM and inactive = higher.

Oc1cn(-c2ccc(Cl)cc2)nc1-c1n[nH]c(=S)n1-c1ccccc1; 3.79 µM (inactive)
Cc1cn(C2CC(N=[N+]=[N-])C(C(=O)O)O2)c(=O)[nH]c1=O (stereo unspecified); > 100 µM (inactive)
COc1ccc(/C=C/C(=O)CCN2CCN(CCC(=O)/C=C/c3ccc(OC)cc3)CC2)cc1; 36.4 µM (inactive)
c1ccc(/N=C2\SC(c3ccccc3)CN2C23CC4CC(CC(C4)C2)C3)cc1 (stereo unspecified); > 100 µM (inactive)
CC/C=N\N1C(N)=C(C#N)C(C#N)(C#N)C1CC (stereo unspecified); 92 µM (inactive)

The value of GI50 recorded for COP(C)(=O)C1=CCN(C(=O)OCC[Si](C)(C)C)CC1 (stereo unspecified) when tested on NCI/ADR-RES reads > 100 µM (inactive)

Item: "CCCCCCNC(=O)c1cc(C#Cc2cc(OC)ccc2OC)ccc1OC" | System: NCI/ADR-RES | GI50: 47.8 µM (inactive)

Readout GI50 for "CN(C)c1ccc(/C=C2\Oc3cc(O)ccc3C2=O)cc1" , test system NCI/ADR-RES, was 83.4 µM (inactive)

---

- Test system: SR
- runDescription: NCI tumour cell line growth inhibition, 48 h
Calls of active or inactive are those of the source. Cut-off read from the data, not from the text of the source: active = GI50 up to about 1.1 µM and inactive = higher.
Consider the following molecules and their measured GI50 readings.

Record summary for CC(CC[C@@]1(O)OC2C[C@H]3[C@@H]4CC[C@H]5CC(OC6OC(CO)C(OC7OC(CO)C(O)C(OC8OCC(O)C(O)C8O)C7OC7OC(CO)C(O)C(O)C7O)C(O)C6O)[C@H](O)CC5(C)[C@H]4CCC3(C)C2[C@@H]1C)COC1OC(CO)C(O)C(O)C1O (stereo partly drawn) : reported GI50 = 7.85 µM (inactive)

GI50 reported for this molecule C=C1C(=O)O[C@H]2C[C@@H]1C(=O)CC(C)CCCC(C)=CCC[C@@]2(C)O (stereo partly drawn) : 16.8 µM (inactive)

// recorded GI50 for "c1cc(N(CCn2cccn2)CCn2cccn2)cc(N(CCn2cccn2)CCn2cccn2)c1" : > 100 µM (inactive)

---

- Tested on: ACHN
- runDescription: NCI tumour cell line growth inhibition, 48 h
The source made the active and inactive calls. Cut-off read from the data, not from the text of the source: active = GI50 up to about 1.1 µM and inactive = higher.
Answer with one of the outcomes given here: Y (active), N (inactive)

O=c1ccc2nc3cc(Br)ccc3sc-2c1; N
O=C1NC(=O)C(C(=O)C(=O)Nc2ccc(Cl)cc2Cl)C(=O)N1; N
CC1(C)CC(N2CCN(C3CC(C)(C)NC(C)(C)C3)CC2)CC(C)(C)N1; N
Cc1ccc(S(=O)(=O)n2c3c(c4ccccc42)CCN2C(=O)C(S(=O)(=O)c4ccccc4)=CCC32)cc1 (centres undefined); Y
c1cc(CSc2ncnc3[nH]cnc23)ccn1; N
CC(CC[C@@]1(O)OC2C[C@H]3[C@@H]4CC[C@H]5CC(OC6OC(CO)C(OC7OC(CO)C(O)C(OC8OCC(O)C(O)C8O)C7OC7OC(CO)C(O)C(O)C7O)C(O)C6O)[C@H](O)CC5(C)[C@H]4CCC3(C)C2[C@@H]1C)COC1OC(CO)C(O)C(O)C1O (some centres undefined); N
CC(O[Si](c1ccccc1)(c1ccccc1)C(C)(C)C)[C@H](NC(=O)OC(C)(C)C)C(=O)O[Si](c1ccccc1)(c1ccccc1)C(C)(C)C (some centres undefined); N
O=C1CC(c2ccccc2)=Nc2ccccc2N1; N

Now look at this one.
In this assay, the call recorded for "CN(C)/C(=N\C#N)NCc1ccccc1" was what? N
